# system: THIK-1 Y102A (Homo sapiens, UniProt Q9HB14, Y102A)
# Construct: expressed in transfected cells; host or cells: Xenopus oocytes (mRNA injection)
# Sequence (Q9HB14 1-408 Y102A): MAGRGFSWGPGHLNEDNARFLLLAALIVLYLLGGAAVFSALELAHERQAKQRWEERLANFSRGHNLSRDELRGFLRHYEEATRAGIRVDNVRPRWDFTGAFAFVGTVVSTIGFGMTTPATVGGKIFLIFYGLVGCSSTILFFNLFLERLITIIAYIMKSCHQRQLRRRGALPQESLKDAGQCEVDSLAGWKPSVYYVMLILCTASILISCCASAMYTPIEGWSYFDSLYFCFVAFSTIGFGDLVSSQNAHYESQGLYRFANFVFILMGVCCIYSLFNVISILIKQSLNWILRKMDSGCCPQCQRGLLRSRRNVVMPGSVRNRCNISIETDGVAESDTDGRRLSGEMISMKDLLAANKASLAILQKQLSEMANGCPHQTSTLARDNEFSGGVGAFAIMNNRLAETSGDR
# assay_explanation: Inside-out excised patch recordings, oocytes, THIK-1 Y102A mutant (lipid activation)
# Format: cell-based
# assay_setup: mean, read-out: Linoleic acid EC50
parameter: EC50 (µM)
Please state the figure in µM; there is no need to write the unit.

In: Input "CCCCC/C=C\C/C=C\CCCCCCCC(=O)O" , output reported EC50.
Out: 93.6

* * *

# system: THIK-1 T237A (Homo sapiens, UniProt Q9HB14, T237A)
# Construct: expressed in transfected cells; host or cells: Xenopus oocytes (mRNA injection)
# Sequence (Q9HB14 1-408 T237A): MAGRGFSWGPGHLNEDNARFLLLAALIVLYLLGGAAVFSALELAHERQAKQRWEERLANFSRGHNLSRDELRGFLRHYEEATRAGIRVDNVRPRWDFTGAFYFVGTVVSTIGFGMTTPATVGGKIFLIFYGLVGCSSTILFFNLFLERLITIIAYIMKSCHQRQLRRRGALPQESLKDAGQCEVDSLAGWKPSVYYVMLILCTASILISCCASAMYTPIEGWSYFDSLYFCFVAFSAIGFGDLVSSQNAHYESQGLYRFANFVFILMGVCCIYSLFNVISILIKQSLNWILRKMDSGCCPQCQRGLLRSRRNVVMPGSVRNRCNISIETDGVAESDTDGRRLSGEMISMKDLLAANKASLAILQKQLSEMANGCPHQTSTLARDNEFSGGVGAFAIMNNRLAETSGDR
# assay_explanation: Inside-out excised patch recordings, oocytes, THIK-1 T237A mutant
# Type: cell-based
# assay_setup: TPenA IC50, T237A mutant
parameter: pIC50
On this scale, pIC50 is minus log10 of a concentration expressed in M (mol/L).

In: Input "CCCCC[N+](CCCCC)(CCCCC)CCCCC" , output reported pIC50.
Out: 3.12

* * *

# system: THIK-1 V269A (Homo sapiens, UniProt Q9HB14, V269A)
# Construct: expressed in transfected cells; host or cells: Xenopus oocytes (mRNA injection)
# Sequence (Q9HB14 1-408 V269A): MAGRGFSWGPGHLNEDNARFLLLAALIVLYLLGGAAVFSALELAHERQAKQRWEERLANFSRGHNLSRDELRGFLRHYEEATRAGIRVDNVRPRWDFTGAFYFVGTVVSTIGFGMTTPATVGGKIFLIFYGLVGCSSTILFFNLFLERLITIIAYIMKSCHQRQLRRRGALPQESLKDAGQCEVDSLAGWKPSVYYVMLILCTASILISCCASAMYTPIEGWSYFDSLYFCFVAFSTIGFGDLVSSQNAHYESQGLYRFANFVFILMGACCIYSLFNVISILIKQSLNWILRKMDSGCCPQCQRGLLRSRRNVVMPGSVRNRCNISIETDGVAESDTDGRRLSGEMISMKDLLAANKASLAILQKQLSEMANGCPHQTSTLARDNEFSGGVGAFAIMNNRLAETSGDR
# assay_explanation: Inside-out excised patch recordings, oocytes, THIK-1 V269A mutant
# Format: cell-based
# assay_setup: V269A mutant; read-out: TPenA IC50
parameter: pIC50
On this scale, pIC50 is minus log10 of a concentration expressed in M (mol/L).

In: Input "CCCCC[N+](CCCCC)(CCCCC)CCCCC" , output reported pIC50.
Out: 2.66

Values from paper PMC12263422
